pIC50: −log10 of the molar value.
Below are pIC50 values measured for PDE3A (Homo sapiens).

Fetch value of pIC50 on PDE3A (Homo sapiens) for CN1CC(=O)N2[C@H](c3ccc4c(c3)OCO4)c3[nH]c4ccccc4c3C[C@@H]2C1=O [Tadalafil, tadalafil, reference compound] .
Sequence (Q14432 whole entry, species assumed): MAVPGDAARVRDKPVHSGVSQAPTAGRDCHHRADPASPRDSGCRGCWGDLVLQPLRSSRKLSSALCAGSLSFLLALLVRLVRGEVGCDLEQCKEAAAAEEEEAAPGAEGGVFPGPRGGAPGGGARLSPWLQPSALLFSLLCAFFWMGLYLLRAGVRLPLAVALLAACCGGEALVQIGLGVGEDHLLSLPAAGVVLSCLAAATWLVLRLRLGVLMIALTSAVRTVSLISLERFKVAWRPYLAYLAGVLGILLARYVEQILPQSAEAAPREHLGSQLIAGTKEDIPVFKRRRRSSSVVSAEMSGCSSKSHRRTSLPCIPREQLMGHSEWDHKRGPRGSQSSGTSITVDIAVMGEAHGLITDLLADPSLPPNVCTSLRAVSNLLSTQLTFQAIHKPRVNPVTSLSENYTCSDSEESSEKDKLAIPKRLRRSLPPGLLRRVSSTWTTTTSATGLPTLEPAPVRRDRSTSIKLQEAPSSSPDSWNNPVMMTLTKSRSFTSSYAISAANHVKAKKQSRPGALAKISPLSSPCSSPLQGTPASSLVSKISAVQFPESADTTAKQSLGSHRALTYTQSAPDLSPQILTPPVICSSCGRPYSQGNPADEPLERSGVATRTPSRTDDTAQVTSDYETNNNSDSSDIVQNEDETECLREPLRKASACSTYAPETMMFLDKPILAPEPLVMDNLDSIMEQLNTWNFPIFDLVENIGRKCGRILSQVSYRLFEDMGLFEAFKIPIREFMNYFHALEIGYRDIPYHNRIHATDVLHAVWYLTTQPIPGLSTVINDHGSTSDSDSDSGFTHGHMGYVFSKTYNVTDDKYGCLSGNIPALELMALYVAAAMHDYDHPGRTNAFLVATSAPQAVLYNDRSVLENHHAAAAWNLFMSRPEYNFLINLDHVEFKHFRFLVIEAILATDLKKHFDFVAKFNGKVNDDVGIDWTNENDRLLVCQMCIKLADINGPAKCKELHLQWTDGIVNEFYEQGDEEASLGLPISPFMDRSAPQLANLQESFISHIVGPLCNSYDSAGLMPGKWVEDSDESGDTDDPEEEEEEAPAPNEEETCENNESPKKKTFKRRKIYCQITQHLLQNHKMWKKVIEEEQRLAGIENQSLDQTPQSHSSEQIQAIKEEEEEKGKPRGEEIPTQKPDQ
< 4.30

Fetch value of pIC50 on PDE3A (Homo sapiens) for CCN1C(=O)[C@@H]2Cc3c([nH]c4ccccc34)[C@@H](c3ccc(Br)s3)N2C1=O [Compound 8] .
< 4.30

Fetch value of pIC50 on PDE3A (Homo sapiens) for CCCCN1C(=O)[C@H]2Cc3c([nH]c4ccccc34)[C@@H](c3ccc(Br)s3)N2C1=O [Compound 9] .
< 4.30

====

This section presents molecules with their documented pIC50 values.
Target: PDE10A (Homo sapiens)
Sequence (Q9Y233 whole entry, species assumed): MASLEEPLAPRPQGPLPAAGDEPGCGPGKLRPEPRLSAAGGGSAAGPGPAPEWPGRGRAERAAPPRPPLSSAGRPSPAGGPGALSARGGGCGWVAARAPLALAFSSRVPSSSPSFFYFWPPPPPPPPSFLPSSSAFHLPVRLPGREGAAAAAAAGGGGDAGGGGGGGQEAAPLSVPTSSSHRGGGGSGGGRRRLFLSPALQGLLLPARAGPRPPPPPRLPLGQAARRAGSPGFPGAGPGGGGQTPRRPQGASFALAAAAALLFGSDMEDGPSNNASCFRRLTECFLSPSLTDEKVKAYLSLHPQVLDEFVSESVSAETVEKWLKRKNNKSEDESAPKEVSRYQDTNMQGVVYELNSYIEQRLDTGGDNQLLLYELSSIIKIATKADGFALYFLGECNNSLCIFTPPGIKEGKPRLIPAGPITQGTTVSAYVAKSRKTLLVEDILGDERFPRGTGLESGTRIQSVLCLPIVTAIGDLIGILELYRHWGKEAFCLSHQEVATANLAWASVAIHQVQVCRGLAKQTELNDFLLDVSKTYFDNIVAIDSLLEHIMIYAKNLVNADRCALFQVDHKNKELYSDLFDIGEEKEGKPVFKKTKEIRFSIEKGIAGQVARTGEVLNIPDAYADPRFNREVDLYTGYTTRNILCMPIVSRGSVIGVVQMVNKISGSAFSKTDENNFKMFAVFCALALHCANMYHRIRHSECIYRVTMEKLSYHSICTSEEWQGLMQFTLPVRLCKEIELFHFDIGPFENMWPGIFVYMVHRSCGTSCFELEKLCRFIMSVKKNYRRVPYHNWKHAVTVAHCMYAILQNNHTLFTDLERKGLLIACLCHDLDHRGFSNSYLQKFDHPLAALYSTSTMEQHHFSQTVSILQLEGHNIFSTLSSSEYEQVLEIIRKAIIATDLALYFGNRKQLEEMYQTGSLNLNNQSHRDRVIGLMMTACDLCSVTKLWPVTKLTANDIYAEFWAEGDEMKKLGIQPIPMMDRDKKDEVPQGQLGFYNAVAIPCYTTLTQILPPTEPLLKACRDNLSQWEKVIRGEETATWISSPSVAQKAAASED
Assay: PDE selectivity array, PDE10A with cGMP as substrate
pIC50: −log10 of the molar value.

Worked examples follow.
- molecule: "CN1CC(=O)N2[C@H](c3ccc4c(c3)OCO4)c3[nH]c4ccccc4c3C[C@@H]2C1=O [Tadalafil, tadalafil, reference compound]"
  result: "< 4.30"
- molecule: "CCCCN1C(=O)[C@H]2Cc3c([nH]c4ccccc34)[C@@H](c3ccc(Br)s3)N2C1=O"
  result: "< 4.30"

Please examine the following record next.
Tell me pIC50 reported for "CCN1C(=O)[C@@H]2Cc3c([nH]c4ccccc34)[C@@H](c3ccc(Br)s3)N2C1=O"
< 4.30

====

This section presents molecules with their documented pIC50 values.
Biological target: PDE11A (Homo sapiens)
Sequence (Q9HCR9 whole entry, species assumed): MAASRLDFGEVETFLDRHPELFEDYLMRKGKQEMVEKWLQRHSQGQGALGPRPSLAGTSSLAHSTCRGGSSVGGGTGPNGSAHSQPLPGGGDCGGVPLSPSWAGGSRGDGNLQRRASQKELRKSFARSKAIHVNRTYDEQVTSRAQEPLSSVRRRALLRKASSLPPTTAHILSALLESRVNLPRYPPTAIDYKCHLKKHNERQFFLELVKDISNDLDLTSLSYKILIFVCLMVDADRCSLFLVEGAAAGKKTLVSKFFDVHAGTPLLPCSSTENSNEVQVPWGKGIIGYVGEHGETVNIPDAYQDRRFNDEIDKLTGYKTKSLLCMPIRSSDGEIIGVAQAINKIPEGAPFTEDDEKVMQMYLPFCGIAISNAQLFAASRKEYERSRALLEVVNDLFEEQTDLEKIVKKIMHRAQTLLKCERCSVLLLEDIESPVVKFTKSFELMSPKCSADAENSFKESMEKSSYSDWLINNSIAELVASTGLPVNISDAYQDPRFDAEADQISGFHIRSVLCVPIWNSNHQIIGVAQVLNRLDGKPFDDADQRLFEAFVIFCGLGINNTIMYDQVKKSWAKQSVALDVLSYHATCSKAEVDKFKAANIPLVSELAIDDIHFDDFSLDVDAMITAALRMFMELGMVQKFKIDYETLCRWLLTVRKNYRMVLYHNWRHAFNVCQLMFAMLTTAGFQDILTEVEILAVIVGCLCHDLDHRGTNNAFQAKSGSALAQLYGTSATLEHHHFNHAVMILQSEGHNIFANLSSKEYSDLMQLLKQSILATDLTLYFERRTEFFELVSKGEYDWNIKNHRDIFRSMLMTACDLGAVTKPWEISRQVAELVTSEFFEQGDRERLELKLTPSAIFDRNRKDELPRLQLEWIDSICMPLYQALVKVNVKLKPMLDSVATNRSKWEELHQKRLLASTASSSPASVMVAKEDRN
Experiment: PDE selectivity array, PDE11A with cGMP and cAMP as substrates
Conditions: IC50 PDE11A cGMP, substrate cGMP; 10 concentrations, double replicates
# pIC50 is unitless: minus log10 of the molar concentration; print number only

- line.notation: "CCCCN1C(=O)[C@H]2Cc3c([nH]c4ccccc34)[C@@H](c3ccc(Br)s3)N2C1=O"
  target.system: "PDE11A (Homo sapiens)"
  pIC50: 5.64

Please examine the following record next.
Tell me pIC50 reported for "CCN1C(=O)[C@@H]2Cc3c([nH]c4ccccc34)[C@@H](c3ccc(Br)s3)N2C1=O"
5.11

====

Molecular target: recombinant human PDE5 (Homo sapiens, UniProt O76074)
Assay: PDE5 inhibition, IMAP FP phosphodiesterase assay
Type: biochemical
Conditions: read-out: PDE5 % inhibition at 10 μm
This section presents compounds with their documented inhibition at 10 µM values.

- line.notation: "CC(C)(C)N1C(=O)[C@H]2Cc3c([nH]c4ccccc34)[C@@H](c3ccc(Br)s3)N2C1=O"
  measurement.kind: "inhibition at 10 µM"
  result: "97%"
- line.notation: "COC(=O)[C@@H]1Cc2c([nH]c3ccccc23)[C@H](c2ccc(Br)s2)N1"
  measurement.kind: "inhibition at 10 µM"
  result: "< 60%"
- line.notation: "CCN1CC(=O)N2[C@H](c3ccc(Br)s3)c3[nH]c4ccccc4c3C[C@@H]2C1=O"
  measurement.kind: "inhibition at 10 µM"
  result: "81%"

Fetch value of inhibition at 10 µM on recombinant human PDE5 (Homo sapiens, UniProt O76074) for "COC(=O)[C@H]1Cc2c([nH]c3ccccc23)[C@@H](c2ccc(Br)s2)N1" .
< 60%

Fetch value of inhibition at 10 µM on recombinant human PDE5 (Homo sapiens, UniProt O76074) for "CCCCN1C(=O)[C@H]2Cc3c([nH]c4ccccc34)[C@H](c3ccc(Br)s3)N2C1=O" .
< 60%

Fetch value of inhibition at 10 µM on recombinant human PDE5 (Homo sapiens, UniProt O76074) for "COC(=O)c1cc2c([nH]c3ccccc32)c(-c2ccc(Br)s2)n1" .
< 60%

Fetch value of inhibition at 10 µM on recombinant human PDE5 (Homo sapiens, UniProt O76074) for "CC(C)(C)N1C(=O)[C@H]2Cc3c([nH]c4ccccc34)[C@H](c3ccc(Br)s3)N2C1=O" .
< 60%

Fetch value of inhibition at 10 µM on recombinant human PDE5 (Homo sapiens, UniProt O76074) for "COC(=O)[C@H]1Cc2c([nH]c3ccccc23)[C@H](c2ccc(Br)s2)N1" .
< 60%
